test-details: Cell viability assay (CellTiter-Glo, CTG protocol), ARH-77
Assay type: cell-based
test-context: human, ARH-77 cells (lymphoblast-like), ARH-77 (MCL-1 independent line), 24 hours incubation, 1% FBS, read-out: Average pCC50 by molecule ARH-77 (converted)
CC50 at 24 h values by entry

molecule	CC50 at 24 h
Cc1nn(C)c(C)c1-c1c(Cl)ccc2c(CCCOc3cccc4cc(F)ccc34)c(C(=O)OCOC(=O)C(C)(C)C)n(CCN3CCC(CN4CCN(c5ccc6c(c5)CN([C@H]5CCC(=O)NC5=O)C6=O)CC4)CC3)c12	> 10 µM
Cc1nn(C)c(C)c1-c1c(Cl)ccc2c(CCCOc3cccc4cc(F)ccc34)c(C(=O)OC(C)OC(=O)OC3CCCCC3)n(CCN3CCN(C(=O)COc4cccc5c4CN(C4CCC(=O)NC4=O)C5=O)CC3)c12 (centres unmarked)	> 31.6 µM
CC(=O)OCOC(=O)c1c(CCCOc2cccc3cc(F)ccc23)c2ccc(Cl)c(-c3c(C)nn(C)c3C)c2n1CCN1CCN(C(=O)COc2cccc3c2CN(C2CCC(=O)NC2=O)C3=O)CC1 (centres unmarked)	> 10 µM
Cc1nn(C)c(C)c1-c1c(Cl)ccc2c(CCCOc3cccc4cc(F)ccc34)c(C(=O)OCOC(=O)C3CCNCC3)n(CCN3CCN(C(=O)COc4cccc5c4CN(C4CCC(=O)NC4=O)C5=O)CC3)c12 (centres unmarked)	> 10 µM
Cc1nn(C)c(C)c1-c1c(Cl)ccc2c(CCCOc3cccc4cc(F)ccc34)c(C(=O)OCOC(=O)C(C)(C)C)n(CCN3CCN(C(=O)COc4cccc5c4CN(C4CCC(=O)NC4=O)C5=O)CC3)c12 (centres unmarked)	> 31.6 µM
CCOCCOCCOC(=O)OC(C)OC(=O)c1c(CCCOc2cccc3cc(F)ccc23)c2ccc(Cl)c(-c3c(C)nn(C)c3C)c2n1CCN1CCN(C(=O)COc2cccc3c2CN(C2CCC(=O)NC2=O)C3=O)CC1 (centres unmarked)	> 31.6 µM
CC(=O)OC(C)OC(=O)c1c(CCCOc2cccc3cc(F)ccc23)c2ccc(Cl)c(-c3c(C)nn(C)c3C)c2n1CCN1CCN(C(=O)COc2cccc3c2CN(C2CCC(=O)NC2=O)C3=O)CC1 (centres unmarked)	> 31.6 µM
COCCOCC(=O)OCOC(=O)c1c(CCCOc2cccc3cc(F)ccc23)c2ccc(Cl)c(-c3c(C)nn(C)c3C)c2n1CCN1CCN(C(=O)COc2cccc3c2CN(C2CCC(=O)NC2=O)C3=O)CC1 (centres unmarked)	> 10 µM
Cc1nn(C)c(C)c1-c1c(Cl)ccc2c(CCCOc3cccc4cc(F)ccc34)c(C(=O)OCOC(=O)C(C)(C)C)n(CCN3CCN(C(=O)COc4ccc5c(c4)n(C)c(=O)n5C4CCC(=O)NC4=O)CC3)c12 (centres unmarked)	> 1 µM
Cc1nn(C)c(C)c1-c1c(Cl)ccc2c(CCCOc3cccc4cc(F)ccc34)c(C(=O)OCCS(C)(=O)=O)n(CCN3CCN(C(=O)COc4cccc5c4CN(C4CCC(=O)NC4=O)C5=O)CC3)c12 (centres unmarked)	> 31.6 µM
Cc1nn(C)c(C)c1-c1c(Cl)ccc2c(CCCOc3cccc4cc(F)ccc34)c(C(=O)OCOC(=O)C(C)(C)C)n(CCN3CCN(C(=O)COc4cccc5c4n(C)c(=O)n5C4CCC(=O)NC4=O)CC3)c12 (centres unmarked)	> 1 µM
Cc1nn(C)c(C)c1-c1c(Cl)ccc2c(CCCOc3cccc4cc(F)ccc34)c(C(=O)OC(C)OC(=O)OC(C)C)n(CCN3CCN(C(=O)COc4cccc5c4CN(C4CCC(=O)NC4=O)C5=O)CC3)c12 (centres unmarked)	> 31.6 µM
Cc1nn(C)c(C)c1-c1c(Cl)ccc2c(CCCOc3cccc4cc(F)ccc34)c(C(=O)OCOC(=O)C(C)(C)C)n(CCN3CCN(C(=O)Cn4c(C)nc5c(C(=O)NC6CCC(=O)NC6=O)cccc54)CC3)c12 (centres unmarked)	> 31.6 µM
Cc1nn(C)c(C)c1-c1c(Cl)ccc2c(CCCOc3cccc4cc(F)ccc34)c(C(=O)OCOC(=O)CCO)n(CCN3CCN(C(=O)COc4cccc5c4CN(C4CCC(=O)NC4=O)C5=O)CC3)c12 (centres unmarked)	> 3.16 µM
